Origin of the recorded values: the Immune Epitope Database (IEDB)

molecular target: HLA-B*07:02; assay: IEDB peptide-MHC binding, purified MHC/direct/fluorescence; filed as Kd, often an IC50 or EC50 that approximates it; bounds were set here for any values at or beyond the usual limits of such assays; conditions: source organism: Homo sapiens
measuredParameter: Kd (nM)
Numbers only, in nM.

# get_value(readout='Kd', item= `RPVSPGKDI` )
45.3

###

target: HLA-B*15:42; assay: IEDB peptide-MHC binding, purified MHC/competitive/fluorescence; filed as Kd, often an IC50 or EC50 that approximates it; bounds were set here for any values at or beyond the usual limits of such assays; conditions: source organism: Campylobacter jejuni
pKd: −log10 of the molar value.
measuredParameter: pKd

// lookup pKd | system=HLA-B*15:42 | key= `YTKKYLLSF`
≤ 5.30

###

target: HLA-A*69:01; experiment: IEDB peptide-MHC binding, purified MHC/direct/fluorescence; filed as Kd, often an IC50 or EC50 that approximates it; bounds were set here for any values at or beyond the usual limits of such assays; settings: source organism: Yersinia pestis
Exercise: state measured pKd for each of the sequences provided.
Give bare numbers, as −log10 of the molar value.

>  <residues>
ETIFTVLAL

>  <pKd>
8.46

$$$$

// switching to the query sequence
// lookup pKd | system=HLA-A*69:01 | key= `LLAALFHDI`
5.71

###

molecular target: HLA-B*15:01; assay: IEDB peptide-MHC binding, purified MHC/direct/fluorescence; filed as Kd, often an IC50 or EC50 that approximates it; bounds were set here for any values at or beyond the usual limits of such assays; details: source organism: Corynebacterium glutamicum
pKd: −log10 of the molar value.
measuredParameter: pKd

# get_value(readout='pKd', item= `WPALSSIAA` )
≤ 5.30

###

target: HLA-A*01:01; experiment: IEDB peptide-MHC binding, purified MHC/competitive/radioactivity; filed as Kd, often an IC50 or EC50 that approximates it; bounds were set here for any values at or beyond the usual limits of such assays; details: source organism: Mammarenavirus lassaense
measuredParameter: Kd (nM)
Numbers only, in nM.

# get_value(readout='Kd', item= `ESDSKPQKV` )
180

###

molecular target: HLA-B*51:01; test: IEDB peptide-MHC binding, purified MHC/direct/fluorescence; filed as Kd, often an IC50 or EC50 that approximates it; bounds were set here for any values at or beyond the usual limits of such assays; details: source organism: Lassa virus Josiah
pKd: −log10 of the molar value.
measuredParameter: pKd

# get_value(readout='pKd', item= `LPTKLRPSA` )
≤ 4.70

###

target: HLA-A*02:03; test: IEDB peptide-MHC binding, purified MHC/competitive/fluorescence; filed as Kd, often an IC50 or EC50 that approximates it; bounds were set here for any values at or beyond the usual limits of such assays; conditions: source organism: Yersinia pestis Antiqua
measuredParameter: Kd

# get_value(readout='Kd', item= `PLTNQRYRV` )
≥ 20 µM

###

target: HLA-B*27:05; assay: IEDB peptide-MHC binding, purified MHC/competitive/fluorescence; filed as Kd, often an IC50 or EC50 that approximates it; bounds were set here for any values at or beyond the usual limits of such assays; conditions: source organism: Influenza A virus (A/swine/Hong Kong/81/1978(H3N2))
measuredParameter: pKd
Numbers only, as −log10 of the molar value.

# get_value(readout='pKd', item= `GRIQDLEKY` )
6.95
